Reference source for all entries: patent US9206130B2

# ASSAYED_SYSTEM: wild type AXL (wtAXL) receptor tyrosine kinase (Homo sapiens)
# Construct: WtAXL cDNA was cloned into vector pLXSN(ESK) and transfected into Phoenix E packaging cells; expressed in transfected cells; host or cells: NIH3T3 N7 mouse fibroblasts, retrovirally infected (clone 22)
# PROTOCOL: NIH-3T3-AXL cellular tyrosine kinase assay (inhibition of AXL phosphorylation)
# Assay type: cell-based
# EXPERIMENTAL_CONDITIONS: AXL phosphorylation in NIH-3T3-AXL (clone 22) cells, serum-depleted, 2 h with compound, immunoprecipitation / anti-phosphotyrosine blot
For each record, write down the corresponding pIC50.
Numbers only, as −log10 of the molar value.

Known pIC50 results, listed for orientation:
COc1cccc(S(=O)(=O)Nc2ccc(Oc3ccnc4cc(OC)c(OC)cc34)cc2F)c1 = 5.60
COc1cc2nccc(Oc3ccc(NS(=O)(=O)c4cccs4)c(F)c3)c2cc1OC = 5.22
COc1cc2c(Oc3ccc(NS(=O)(=O)c4ccccc4Br)cc3F)ccnc2cc1OCCN1CCOCC1 = 6.82
COc1cc2nccc(Oc3ccc(NS(=O)(=O)c4cccc(Br)c4)c(F)c3)c2cc1OC = 5.62
COc1cc2nccc(Oc3ccc(NS(=O)(=O)c4ccc(Cl)cc4F)cc3F)c2cc1OC = 5.93

List the reported pIC50 of each molecule below.
1. COc1cc2nccc(Oc3ccc(NS(=O)(=O)c4cccc5ccccc45)c(F)c3)c2cc1OC
2. COc1cc2nccc(Oc3ccc(NS(=O)(=O)c4cc(Cl)cc(Cl)c4OC)cc3F)c2cc1OC

stdout:
6.05
6.12

* * *

# ASSAYED_SYSTEM: wild type AXL (wtAXL) receptor tyrosine kinase (Homo sapiens)
# Construct: WtAXL cDNA was cloned into vector pLXSN(ESK) and transfected into Phoenix E packaging cells
# PROTOCOL: NIH-3T3-AXL cellular tyrosine kinase assay (inhibition of AXL phosphorylation)
# EXPERIMENTAL_CONDITIONS: AXL phosphorylation in NIH-3T3-AXL (clone 22) cells, serum-depleted, 2 h with compound, immunoprecipitation / anti-phosphotyrosine blot
READOUT: pIC50
One number for each entry, as −log10 of the molar value.

COc1cc2c(Oc3ccc(NS(=O)(=O)c4ccccc4OC(F)(F)F)cc3F)ccnc2cc1OCCN1CCOCC1 [Example D06] = 7.16

The record that follows has no pIC50 shown yet.
The molecule COc1cc2nccc(Oc3ccc(NS(=O)(=O)c4ccc(F)c(F)c4)c(F)c3)c2cc1OC [Example A3] showed pIC50 equal to 5.47

* * *

Structures can show the parent of a compound that is named as a salt.
READOUT: melting point

COc1cc2nccc(Oc3ccc(NS(=O)(=O)c4cccc(-c5ncccn5)c4)c(F)c3)c2cc1OC = 137 to 140 °C
COc1cc2nccc(Oc3ccc(NS(=O)(=O)c4ccc(-c5ccccc5)cc4)cc3F)c2cc1OC = 167 to 171 °C
COc1cc2nccc(Oc3ccc(NS(=O)(=O)c4ccc(Oc5ccccc5)cc4)c(F)c3)c2cc1OC = 202 to 204 °C
COc1cc2nccc(Oc3ccc(NS(=O)(=O)c4cccc(Cl)c4)c(F)c3)c2cc1OC = 250 to 251 °C
COc1cc2c(Oc3ccc(NS(=O)(=O)c4ccccc4OC(F)(F)F)cc3F)ccnc2cc1OCCCN (as salt: hydrochloride) = 95 to 97 °C

List the reported melting point of each compound below.
1. COc1cc2nccc(Oc3ccc(NS(=O)(=O)c4cc5ccccc5s4)cc3)c2cc1OC
2. COc1cc(S(=O)(=O)Nc2ccc(Oc3ccnc4cc(OC)c(OC)cc34)cc2C)ccc1F
3. COc1cc2nccc(Oc3ccc(NS(=O)(=O)c4ccc(OC)c5ccccc45)c(C)c3)c2cc1OC
4. Cc1cc(Oc2ccc(NS(=O)(=O)c3ccc(F)c(Cl)c3)c(F)c2)c2cc(F)ccc2n1

stdout:
1: 222 to 225 °C; 2: 228 to 229 °C; 3: 216 to 217 °C; 4: 205 to 207 °C

List the reported melting point of each compound below.
1. COc1cc2nccc(Oc3ccc(NS(=O)(=O)c4ccc(-c5ccccc5)s4)c(F)c3)c2cc1OC
2. Cc1cc(Oc2ccc(NS(=O)(=O)c3c(F)cccc3F)c(F)c2)c2cc(F)ccc2n1
3. COc1cc2nccc(Oc3ccc(NS(=O)(=O)c4ccccc4C(F)(F)F)cc3C)c2cc1OC
4. COc1cc2nccc(Oc3ccc(NS(=O)(=O)c4cnc(C)[nH]4)cc3)c2cc1OC
5. COc1cc2c(Oc3ccc(NS(=O)(=O)c4cccc5ccccc45)cc3F)ccnc2cc1OCCCN1CCC(C)CC1

stdout:
186 to 188 °C
188 to 190 °C
209 to 211 °C
268 to 269 °C
140 to 143 °C

List the reported melting point of each compound below.
1. COc1cc2c(Oc3ccc(NS(=O)(=O)c4cccc5ccccc45)cc3F)ccnc2cc1OCCCN1CCOCC1
2. COc1cc2nccc(Oc3ccc(NS(=O)(=O)c4cccc(-c5ccccc5)c4)cc3F)c2cc1OC

stdout:
1: 108 to 111 °C; 2: 109 to 111 °C

* * *

READOUT: melting point

Known melting point results, listed for orientation:
Cc1cc(Oc2ccc(NS(=O)(=O)c3cccc(-c4ncccn4)c3)c(F)c2)c2cccc(C(F)(F)F)c2n1 [Example C16] = 219 to 220 °C
COc1cc2nccc(Oc3ccc(NS(=O)(=O)c4cccc(Oc5ccccc5)c4)c(C)c3)c2cc1OC [Example A90] = 169 to 170 °C
COc1cc2nccc(Oc3ccc(NS(=O)(=O)c4cc(C)c(NC(C)=O)c(C)c4)cc3)c2cc1OC [Example A66] = 145 to 147 °C
Cc1cc(Oc2ccc(NS(=O)(=O)c3ccc(F)cc3F)cc2)c2cc(F)ccc2n1 [Example B12] = 179 to 180 °C
Cc1cc(Oc2ccc(NS(=O)(=O)c3cc(F)cc(F)c3)cc2)c2cc(F)ccc2n1 [Example B13] = 194 to 195 °C
COc1cc2nccc(Oc3ccc(NS(=O)(=O)c4ccc(Cl)c(Cl)c4)c(F)c3)c2cc1OC [Example A49] = 225 to 227 °C
COc1cc2nccc(Oc3ccc(NS(=O)(=O)c4ccc(Br)cc4OC(F)(F)F)cc3OC)c2cc1OC [Example A148] = 176 to 177 °C
Cc1cc(Oc2ccc(NS(=O)(=O)c3c(Cl)cccc3Cl)c(F)c2)c2cccc(C(F)(F)F)c2n1 [Example C06] = 171 to 173 °C
Cc1cc(Oc2ccc(NS(=O)(=O)c3ccccc3C(F)(F)F)c(F)c2)c2cccc(C(F)(F)F)c2n1 [Example C07] = 183 to 185 °C
COc1cc2nccc(Oc3ccc(NS(=O)(=O)Cc4ccccc4)c(F)c3)c2cc1OC [Example A73] = 204 to 205 °C

List the reported melting point of each compound below.
1. COc1cc2c(Oc3ccc(NS(=O)(=O)c4ccc(F)cc4F)cc3F)ccnc2cc1OCCCN1CCC(C)CC1 [Example D19]
2. COc1cc2nccc(Oc3ccc(NS(=O)(=O)c4cccc(C#N)c4)c(F)c3)c2cc1OC [Example A1]
3. Cc1cc(Oc2ccc(NS(=O)(=O)c3cccc(Oc4ccccc4)c3)c(F)c2)c2cccc(C(F)(F)F)c2n1 [Example C03]
4. COC(=O)c1sccc1S(=O)(=O)Nc1ccc(Oc2ccnc3cc(OC)c(OC)cc23)cc1F [Example A9]
5. COc1cc2nccc(Oc3ccc(NS(=O)(=O)c4ccc(-c5ccccc5)cc4)cc3)c2cc1OC [Example A81]

stdout:
1: 135 to 137 °C; 2: 223 to 224 °C; 3: 167 to 168 °C; 4: 189 to 190 °C; 5: 191 to 194 °C

* * *

# ASSAYED_SYSTEM: wild type AXL (wtAXL) receptor tyrosine kinase (Homo sapiens, UniProt P30530)
# Construct: WtAXL cDNA was cloned into vector pLXSN(ESK) and transfected into Phoenix E packaging cells
# Sequence (P30530 26-894): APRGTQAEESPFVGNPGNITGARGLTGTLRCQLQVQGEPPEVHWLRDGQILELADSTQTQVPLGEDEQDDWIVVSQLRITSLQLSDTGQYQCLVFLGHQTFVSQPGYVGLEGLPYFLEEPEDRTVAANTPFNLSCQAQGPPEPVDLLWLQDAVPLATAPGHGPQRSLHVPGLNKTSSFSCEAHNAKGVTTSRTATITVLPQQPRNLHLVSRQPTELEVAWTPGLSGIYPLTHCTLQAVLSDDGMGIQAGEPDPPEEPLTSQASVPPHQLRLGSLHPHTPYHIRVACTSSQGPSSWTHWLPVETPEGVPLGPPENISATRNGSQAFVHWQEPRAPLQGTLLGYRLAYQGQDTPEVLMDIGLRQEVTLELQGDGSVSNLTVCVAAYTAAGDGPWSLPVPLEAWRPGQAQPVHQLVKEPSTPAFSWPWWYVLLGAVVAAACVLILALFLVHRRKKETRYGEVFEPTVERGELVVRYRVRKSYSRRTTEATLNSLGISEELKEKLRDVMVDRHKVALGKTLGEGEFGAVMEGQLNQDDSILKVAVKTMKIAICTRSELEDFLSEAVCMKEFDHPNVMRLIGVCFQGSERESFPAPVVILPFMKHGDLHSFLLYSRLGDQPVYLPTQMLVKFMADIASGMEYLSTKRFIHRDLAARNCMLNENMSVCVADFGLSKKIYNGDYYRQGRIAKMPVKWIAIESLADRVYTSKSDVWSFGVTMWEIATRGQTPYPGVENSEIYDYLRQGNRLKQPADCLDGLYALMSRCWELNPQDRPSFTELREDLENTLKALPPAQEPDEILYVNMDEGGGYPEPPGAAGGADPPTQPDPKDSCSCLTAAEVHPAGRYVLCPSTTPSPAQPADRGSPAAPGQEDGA
# PROTOCOL: NIH-3T3-AXL cellular tyrosine kinase assay (inhibition of AXL phosphorylation)
# EXPERIMENTAL_CONDITIONS: AXL phosphorylation in NIH-3T3-AXL (clone 22) cells, serum-depleted, 2 h with compound, immunoprecipitation / anti-phosphotyrosine blot
For each record, write down the corresponding pIC50.
One number for each entry, as −log10 of the molar value.

Known pIC50 results, listed for orientation:
COc1cc2c(Oc3ccc(NS(=O)(=O)c4ccccc4C#N)cc3F)ccnc2cc1OCCN1CCOCC1 = 6.11
COc1cc2c(Oc3ccc(NS(=O)(=O)c4ccccc4C#N)cc3F)ccnc2cc1OCCCN1CCCC(C)C1 (stereo not shown) = 6.49

The record that follows has no pIC50 shown yet.
The molecule COc1cc2c(Oc3ccc(NS(=O)(=O)c4cccc(-c5ccccc5)c4)c(C)c3)ccnc2cc1OCCN1CCOCC1 showed pIC50 equal to 6.46

* * *

# ASSAYED_SYSTEM: wild type AXL (wtAXL) receptor tyrosine kinase (Homo sapiens, UniProt P30530)
# Construct: WtAXL cDNA was cloned into vector pLXSN(ESK) and transfected into Phoenix E packaging cells
# PROTOCOL: NIH-3T3-AXL cellular tyrosine kinase assay (inhibition of AXL phosphorylation)
# EXPERIMENTAL_CONDITIONS: AXL phosphorylation in NIH-3T3-AXL (clone 22) cells, serum-depleted, 2 h with compound, immunoprecipitation / anti-phosphotyrosine blot
pIC50: −log10 of the molar value. Counter-ions that a name gives are not always drawn.
For each record, write down the corresponding pIC50.

Known pIC50 results, listed for orientation:
COc1cc2nccc(Oc3ccc(NS(=O)(=O)c4ccccc4F)c(F)c3)c2cc1OC = < 6.00
COc1cc2nccc(Oc3ccc(NS(=O)(=O)c4cc(Cl)sc4Cl)c(F)c3)c2cc1OC = 5.68
COc1cc2c(Oc3ccc(NS(=O)(=O)c4ccc(F)cc4F)cc3F)ccnc2cc1OCCCN1CCC(C)CC1 = 6.89

List the reported pIC50 of each compound below.
1. COc1cc(S(=O)(=O)Nc2ccc(Oc3ccnc4cc(OC)c(OC)cc34)c(F)c2)ccc1F
2. COc1cc2nccc(Oc3ccc(NS(=O)(=O)CC(C)C)c(F)c3)c2cc1OC
3. COc1cc(S(=O)(=O)Nc2ccc(Oc3ccnc4cc(OC)c(OC)cc34)cc2)ccc1F
4. COc1cc2nccc(Oc3ccc(NS(=O)(=O)c4ccc5c(c4)CC(=O)N5C)c(C)c3)c2cc1OC
5. COc1cc2nccc(Oc3ccc(NS(=O)(=O)c4cccc(Oc5ccccc5)c4)cc3OC)c2cc1OC
6. COc1cc2nccc(Oc3ccc(NS(=O)(=O)c4ccccc4Cl)c(F)c3)c2cc1OC
7. COc1cc2nccc(Oc3ccc(NS(=O)(=O)c4ccc(Cl)cc4F)cc3OC)c2cc1OC
8. Cc1cc(Oc2ccc(NS(=O)(=O)c3cnc(C)[nH]3)cc2F)c2cccc(C(F)(F)F)c2n1

stdout:
["< 6.00", 6.24, "< 5.52", "< 5.00", "< 5.00", "< 6.00", "< 5.00", "< 6.00"]

List the reported pIC50 of each compound below.
1. COc1cc2nccc(Oc3ccc(NS(=O)(=O)c4cccc(-c5ccccc5)c4)cc3C)c2cc1OC
2. Cc1cc(Oc2ccc(NS(=O)(=O)c3c(Cl)cccc3Cl)c(F)c2)c2cccc(C(F)(F)F)c2n1
3. COc1cc2c(Oc3ccc(NS(=O)(=O)c4ccc(F)cc4F)cc3F)ccnc2cc1OCCN1CCOCC1
4. COC(=O)c1sccc1S(=O)(=O)Nc1ccc(Oc2ccnc3cc(OC)c(OC)cc23)cc1F
5. COc1cc2c(Oc3ccc(NS(=O)(=O)c4cccc5ccccc45)cc3F)ccnc2cc1OCCCN [Example D02, hydrochloride]
6. COc1cc2nccc(Oc3ccc(NS(=O)(=O)c4cccc(-c5ncccn5)c4)cc3)c2cc1OC
7. COc1ccc(S(=O)(=O)Nc2ccc(Oc3ccnc4cc(OC)c(OC)cc34)cc2F)cc1F
8. COc1cc2nccc(Oc3ccc(NS(=O)(=O)c4cc(Cl)ccc4OC)cc3)c2cc1OC

stdout:
1: < 5.52; 2: < 5.00; 3: < 6.00; 4: 5.43; 5: 6.16; 6: < 6.00; 7: < 6.00; 8: < 5.00

List the reported pIC50 of each compound below.
1. COc1cc2nccc(Oc3ccc(NS(=O)(=O)c4cccc(-c5ccccc5)c4)cc3OC)c2cc1OC
2. Cc1cc(Oc2ccc(NS(=O)(=O)c3cccc(-c4ccccc4)c3)c(F)c2)c2cccc(C(F)(F)F)c2n1
3. COc1cc2nccc(Oc3ccc(NS(=O)(=O)c4cccc5ccccc45)cc3C)c2cc1OC
4. COc1cc2nccc(Oc3ccc(NS(=O)(=O)c4ccc(Br)cc4OC(F)(F)F)cc3OC)c2cc1OC
5. Cc1cc(Oc2ccc(NS(=O)(=O)c3cc(F)cc(F)c3)cc2)c2cc(F)ccc2n1
6. Cc1cc(Oc2ccc(NS(=O)(=O)c3ccc(OCc4c(C)noc4C)cc3)cc2F)c2cccc(C(F)(F)F)c2n1
7. COc1cc2c(Oc3ccc(NS(=O)(=O)c4c(F)cccc4F)cc3F)ccnc2cc1OCCCN1CCC(C)CC1

stdout:
< 5.00
< 5.00
< 5.00
< 5.00
> 6.00
< 5.00
7.54
